B1: CPEB3 Ribozyme (parent)
chain: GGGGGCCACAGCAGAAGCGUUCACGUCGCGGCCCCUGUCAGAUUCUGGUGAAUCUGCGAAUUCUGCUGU

Variants of: B1
Experiment: self-cleavage, relative activity (ratio to wild type); higher = more cleavage; co-transcriptional
self-cleavage values, listed per item
recorded.endpoint: self-cleavage

monomer.sequence	assay.value
GGGGGCCACAGCAGAAGCGUUCACGUCGCGGCCCCUCACAGAUUCUGGUGAAUCUGCGAAUUCUGCUGU [G37C U38A]	0.246
GGGGGCAACAGCAGAAGCGUUCAUGUCGCGGCCCCUGUCAGAUUCUGGUGAAUCUGCGAAUUCUGCUGU [C7A C24U]	0.192
CGGGGCCACAUCAGAAGCGUUCACGUCGCGGCCCCUGUCAGAUUCUGGUGAAUCUGCGAAUUCUGCUGU [G1C G11U]	0.164
GGGGGCCACAGCAGAAGCGUUCACGUCGCGGCCCCUGUCAGAUUCUGGUGAAUCUGCGAAUGCUGCUGC [U62G U69C]	1.03
GGGGGCCACAGCAGAAGCGUUCACGUCGCGGCCCCUGUCAGAAUCUGAUGAAUCUGCGAAUUCUGCUGU [U43A G48A]	1.04
GGGGGCCACAGCAGAAGCGUUCACGUCGCGGCCCCUGUCAGAUUCUGCUGAAUCUGCCAAUUCUGCUGU [G48C G58C]	0.974
GGGGGCCACAGCAGAAGCGUUCACGUCGCGGCCCCCGUCAGAUUCUGGUGAAUCUGCGAAAUCUGCUGU [U36C U61A]	0.557
GGGGGCCACAGCAGAAGCGUUCACGUCGCGGCCCCUGUCAGAAUCUGGCGAAUCUGCGAAUUCUGCUGU [U43A U49C]	0.939
GGGGACCACACCAGAAGCGUUCACGUCGCGGCCCCUGUCAGAUUCUGGUGAAUCUGCGAAUUCUGCUGU [G5A G11C]	0.578
GGGGGCCACAGCAGAAGCGUUCACGUCGCGGCCCCUGUCAAAUUCUGGUGAAACUGCGAAUUCUGCUGU [G41A U53A]	0.65
GGGGGCCACAGCAGAAGCGUUCUCGUCGCGGCCCCUGUCAGAUUCUGGUGAAUCUGCGAAUUCUGUUGU [A23U C66U]	0.964
GGGGGCCACAGCAGGAGCGUUCACGUCGCGGCCCCUGUCGGAUUCUGGUGAAUCUGCGAAUUCUGCUGU [A15G A40G]	0.996
GGGGGCCACAGCAGAAGCGAUCACGUUGCGGCCCCUGUCAGAUUCUGGUGAAUCUGCGAAUUCUGCUGU [U20A C27U]	0.149
GGGGGCCACAGCAGAAGCGUUCACGUCGGGGCCCCUUUCAGAUUCUGGUGAAUCUGCGAAUUCUGCUGU [C29G G37U]	0.185
GGGGGCCACAGCAGAAGCGUUCACGUCGCGGCCCAUGUCAGAUUCUAGUGAAUCUGCGAAUUCUGCUGU [C35A G47A]	0.292
GGGGGCCACAGCAGAAACGUUCACGUCGCGGCCCCUGUCAGAUUCUGGUGAAUCUGCCAAUUCUGCUGU [G17A G58C]	0.454
GGGGGCCACAGCAGAAGCGUUCACGUCGCGGCCCUUGUCAGAUUCUGGUGAAUCUGCGAAUUCUUCUGU [C35U G65U]	0.632
GGGGGCCACAGCAGAAGCGCUCACGUCGCCGCCCCUGUCAGAUUCUGGUGAAUCUGCGAAUUCUGCUGU [U20C G30C]	0.178
GGGCGCCACAGCAGAAGCGUUCACCUCGCGGCCCCUGUCAGAUUCUGGUGAAUCUGCGAAUUCUGCUGU [G4C G25C]	0.102
GGGGGCCACAGCAGAAGCGUUCACGUCGCGGCCGCUGUCAGAUUCUGGUGAAUCUGCGUAUUCUGCUGU [C34G A59U]	0.234
GGGGGCCACAGCAGAAGCGUUCACGUCGCGGCCCCUGUCAGAUUCUCGUGACUCUGCGAAUUCUGCUGU [G47C A52C]	0.946
GGGGGCCACAGCAAAAGCGUUCACGUCGCGGCCACUGUCAGAUUCUGGUGAAUCUGCGAAUUCUGCUGU [G14A C34A]	0.419
